Parameter inhibition at 10 µM: see the listing below.
Tested on: Aromatase (Homo sapiens)
Sequence (P11511 whole entry): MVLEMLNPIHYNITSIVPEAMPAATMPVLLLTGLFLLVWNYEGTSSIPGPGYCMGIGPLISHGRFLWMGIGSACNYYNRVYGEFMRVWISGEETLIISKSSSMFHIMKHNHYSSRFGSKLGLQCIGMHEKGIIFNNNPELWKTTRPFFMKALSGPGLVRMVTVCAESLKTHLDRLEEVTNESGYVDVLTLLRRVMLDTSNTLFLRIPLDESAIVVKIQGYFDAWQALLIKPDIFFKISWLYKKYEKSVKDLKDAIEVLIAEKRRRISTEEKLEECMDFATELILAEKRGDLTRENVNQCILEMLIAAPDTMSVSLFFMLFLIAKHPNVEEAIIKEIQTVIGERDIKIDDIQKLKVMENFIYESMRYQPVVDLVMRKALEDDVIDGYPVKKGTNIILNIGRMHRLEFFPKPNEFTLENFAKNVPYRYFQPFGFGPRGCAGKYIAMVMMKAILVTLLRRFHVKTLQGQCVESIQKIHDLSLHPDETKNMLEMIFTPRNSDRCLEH
Protocol text: Inhibition of human recombinant aromatase at 10 uM after 30 mins relative to control
Conditions: 0.5 h
Result type: inhibition at 10 µM

Chemical structure: CC(C)c1cc(C=O)c2c(c1O)[C@H](O)[C@H]1C(C)(C)CCC[C@]21C
Reported: 23.7%
--
Chemical structure: CC(C)c1cc(C=O)c([C@@]2(C)CCCC(C)(C)[C@H]2C=O)cc1O
Reported: 25.1%
--
Chemical structure: COc1cc2c(cc1C(C)C)CC[C@H]1C(C)(C)CCC[C@]21C
Reported: 4.8%
--
Chemical structure: COc1cc2c(cc1C(C)C)C=C[C@@H]1C(C)(C)CCC[C@]21C
Reported: 19.8%
--
Chemical structure: COc1cc2c(cc1C(C)C)C(=O)C[C@@H]1C(C)(C)CCC[C@]21C
Reported: 19.5%
--
Chemical structure: CC(=O)N1CCN(c2ccc(OC[C@H]3CO[C@](Cn4ccnc4)(c4ccc(Cl)cc4Cl)O3)cc2)CC1
Reported: 87.9%
--
Chemical structure: COc1cc2c(cc1C(C)C)C(=O)C[C@H]1C(C)(C)CCC[C@]21C
Reported: 19.8%
--
Chemical structure: CC(C)c1cc(C=O)c([C@@]2(C)CCCC(C)(C)[C@@H]2C=O)cc1O
Reported: 9.2%
--
Chemical structure: COc1cc2c(cc1C(C)C)CC[C@@H]1C(C)(C)CCC[C@]21C
Reported: 19.7%
--
Chemical structure: N#Cc1ccc(C(c2ccc(C#N)cc2)n2cncn2)cc1
Reported: 92.5%

* * *

Quick reference for inhibition at 0.3 µM among some molecules
Tested on: UniProt P11511
Protocol text: Inhibition of human recombinant aromatase at 300 nM after 30 mins relative to control
Conditions: 0.5 h

Chemical structure: CC(C)c1cc(C=O)c([C@@]2(C)CCCC(C)(C)[C@@H]2C=O)cc1O
Tested on: UniProt P11511
Readout qualifier: =
inhibition at 0.3 µM / %: 5.9

Chemical structure: N#Cc1ccc(C(c2ccc(C#N)cc2)n2cncn2)cc1
Tested on: UniProt P11511
Readout qualifier: =
inhibition at 0.3 µM / %: 89.3

Chemical structure: CC(C)c1cc(C=O)c([C@@]2(C)CCCC(C)(C)[C@H]2C=O)cc1O
Tested on: UniProt P11511
Readout qualifier: =
inhibition at 0.3 µM / %: 22.2

Chemical structure: COc1cc2c(cc1C(C)C)C=C[C@@H]1C(C)(C)CCC[C@]21C
Tested on: UniProt P11511
Readout qualifier: =
inhibition at 0.3 µM / %: 16.2

Chemical structure: CC(=O)N1CCN(c2ccc(OC[C@H]3CO[C@](Cn4ccnc4)(c4ccc(Cl)cc4Cl)O3)cc2)CC1
Tested on: UniProt P11511
Readout qualifier: =
inhibition at 0.3 µM / %: 81.7

Chemical structure: COc1cc2c(cc1C(C)C)CC[C@H]1C(C)(C)CCC[C@]21C
Tested on: UniProt P11511
Readout qualifier: =
inhibition at 0.3 µM / %: 9

Chemical structure: COc1cc2c(cc1C(C)C)C(=O)C[C@@H]1C(C)(C)CCC[C@]21C
Tested on: UniProt P11511
Readout qualifier: =
inhibition at 0.3 µM / %: 20.7

Chemical structure: COc1cc2c(cc1C(C)C)CC[C@@H]1C(C)(C)CCC[C@]21C
Tested on: UniProt P11511
Readout qualifier: =
inhibition at 0.3 µM / %: 15.2

Chemical structure: COc1cc2c(cc1C(C)C)C(=O)C[C@H]1C(C)(C)CCC[C@]21C
Tested on: UniProt P11511
Readout qualifier: <
inhibition at 0.3 µM / %: 0

Chemical structure: CC(C)c1cc(C=O)c2c(c1O)[C@H](O)[C@H]1C(C)(C)CCC[C@]21C
Tested on: UniProt P11511
Readout qualifier: =
inhibition at 0.3 µM / %: 1.1
